Value source: ChEMBL document CHEMBL1140214

assay: Antitumor activity against human CNS cancer cells after 48 hrs by SRB assay; type: functional, Cancer cell lines; conditions: Homo sapiens, Cancer cell lines, 48 h; read-out: pTGI (converted)
Think of 40 µM as a floor: if TGI stands on it or above, it is fulfilled; beneath it, not fulfilled.

{"columns": ["SMILES_CODE", "LABEL_CLASS"],
 "data": [
  ["Cc1cn2c(/C=C3/C(=O)N(C)c4ccccc43)c(C)nc2s1", "fulfilled"],
  ["Cc1nn2c(/C=C3/C(=O)Nc4ccccc43)c(-c3ccc(Cl)cc3)nc2s1", "not fulfilled"],
  ["COc1ccc(OC)c(-c2nc3sccn3c2/C=C2/C(=O)N(C)c3ccccc32)c1", "fulfilled"]
]}

Could you please find out whether `COc1ccc2c(c1)/C(=C\c1c(C)nc3sc(C)nn13)C(=O)N2` has TGI that meets 40 µM or exceeds it?
not fulfilled

Could you please find out whether `Cc1nn2c(/C=C3/C(=O)Nc4ccc(Cl)cc43)c(C)nc2s1` has TGI that meets 40 µM or exceeds it?
fulfilled
